test system: Cassia tora; experiment: Post-emergence/greenhouse herbicidal test; type: in vivo; details: 15 g of ai/ha, post-emergence, about 3 weeks
For each entry below, report its Cassia tora observed value.
Field: numeric (%). Do not append units.

Prompt: Given CCOC(=O)C(Cl)=Cc1cc(N2C(=O)C3=C(CCCC3)C2=O)ccc1Cl [Cinidon-ethyl] , state its recorded Cassia tora observed.
Response: 95

Prompt: Given CCCOc1nn(C(=O)NS(=O)(=O)c2ccccc2C(=O)OC)c(=O)n1C [Procarbazone-sodium] , state its recorded Cassia tora observed.
Response: 50

Prompt: Given COc1ncc(F)c2nc(S(=O)(=O)Nc3c(F)cccc3F)nn12 [Florasulam] , state its recorded Cassia tora observed.
Response: 95

Prompt: Given COc1nn(C(=O)NS(=O)(=O)c2ccccc2OC(F)(F)F)c(=O)n1C [Flucarbazone-sodium] , state its recorded Cassia tora observed.
Response: 50

---

tested on: Amaranthus retroflexus; assay: Post-emergence/greenhouse herbicidal test; type: in vivo; conditions: 60 g of ai/ha, post-emergence, about 3 weeks
ENDPOINT NAME: Amaranthus retroflexus observed (%)
Field: numeric (%). Do not append units.

Prompt: Given CCCOc1nn(C(=O)NS(=O)(=O)c2ccccc2C(=O)OC)c(=O)n1C [Procarbazone-sodium] , state its recorded Amaranthus retroflexus observed.
Response: 98

Prompt: Given COc1nn(C(=O)NS(=O)(=O)c2ccccc2OC(F)(F)F)c(=O)n1C [Flucarbazone-sodium] , state its recorded Amaranthus retroflexus observed.
Response: 90

Prompt: Given CC(C)N(C(=O)COc1nnc(C(F)(F)F)s1)c1ccc(F)cc1 , state its recorded Amaranthus retroflexus observed.
Response: 0

Prompt: Given CCOC(=O)[C@@H](C)Oc1ccc(Oc2nc3ccc(Cl)cc3o2)cc1 , state its recorded Amaranthus retroflexus observed.
Response: 0
